These entries and their values trace back to the supplement of paper PMC9170038.

System: MS2 coat protein
Assay: apparent KD of MS2 coat protein; designed switch direction (-1 OFF switch, 1 ON switch): 1; higher = weaker reporter binding
Details: input ligand: none
READOUT NAME: apparent KD of MS2 coat protein (nM)
Kindly provide the numeric value in nM only, without the unit symbol.

Recorded apparent KD of MS2 coat protein, per entry:
{"ENTRY SEQUENCE": "GGUAGGUUACUACCAAACAUGAGGAUCACCCAUGUAAGUGGGAAGGAUAUGGUACCUUUUAGGUACCAGAAGGUCCAUAAAAUU [JL Fiskers NG3ss - 2 mod 7] (Eterna round: R96, puzzle: Same State NG 3)", "ENDPOINT UNIT": "nM", "apparent KD of MS2 coat protein": 2090}
{"ENTRY SEQUENCE": "ACCCAAAGUAUAUGGGAGCAAGCUUUUUAACAUGAGGAUCACCCAUGUACUCGUCUUAUAAGCAGUCGAAAGACUGC [Sensor 100 - 4] (Eterna round: R96, puzzle: Sensor for hsa-mir-208a)", "ENDPOINT UNIT": "nM", "apparent KD of MS2 coat protein": 940}
{"ENTRY SEQUENCE": "AACGGCAGAUGAGGAUAUACUUGCCAUGCGAGCACGCUCGCUACAUGAGGAUCACCCAUGUAUGGGUAGAAGGCAUCAUGAUAC [Eternabot solution 39] (Eterna round: R96, puzzle: Same State NG 2)", "ENDPOINT UNIT": "nM", "apparent KD of MS2 coat protein": 243}

# context switch: different sequence, same apparent KD of MS2 coat protein
Prompt: Supply apparent KD of MS2 coat protein value. Item: GCCGCGUUUCGCGCCUACAUGAGGAUCACCCAUGUUUGUUGGCAGGAUAUCGUCCGCUCUGCGGGCGAGAAGGGCUGUUGUGGU [salish99_SSNG3_R04_025] (Eterna round: R96, puzzle: Same State NG 3)
Response: 25.4

* * *

Tested on: MS2 coat protein
Assay: apparent KD of MS2 coat protein; designed switch direction (-1 OFF switch, 1 ON switch): 1; higher = weaker reporter binding
Conditions: input ligand: microRNA oligo, concentration not stated
READOUT NAME: apparent KD of MS2 coat protein (nM)
Kindly provide the numeric value in nM only, without the unit symbol.

Recorded apparent KD of MS2 coat protein, per entry:
{"ENTRY SEQUENCE": "UGUUGUAUUACAGGAUAUCUAGUAUUUUUAUAUAGAGAAGGGUAUUCACAUGAGGAUCACCCAUGUAUAUACGAGGAAGUUGUG [JMF's solution 51] (Eterna round: R96, puzzle: Same State NG 1)", "ENDPOINT UNIT": "nM", "apparent KD of MS2 coat protein": 23}
{"ENTRY SEQUENCE": "GCUCGAUGAGCGAUUUACAUGAGGAUCACCCAUGUACGUGGGCAGGAUAUUUACGUGCUUUGUGUAGAGAAGGGCCCAUCGAGC [SameState NG3 #72] (Eterna round: R96, puzzle: Same State NG 3)", "ENDPOINT UNIT": "nM", "apparent KD of MS2 coat protein": 309}

# context switch: different sequence, same apparent KD of MS2 coat protein
Prompt: Give apparent KD of MS2 coat protein; test system MS2 coat protein; sequence UAGUGCAUUAGAGGAUAUUCUUACGACACGAGUAAGACAUGAGGAUCACCCAUGUCGUGGCAUGGGAAGAAGGCUGAUGUGCUA [Omei SS(NG)2 Bv7] (Eterna round: R96, puzzle: Same State NG 2)
Response: 11.1

* * *

System: K4 kissing-loop RNA reporter
Experiment: apparent KD of K4 kissing-loop reporter; higher = weaker reporter binding
Settings: Eterna round: R107; input ligand: none
The following sequences are shown together with reported apparent KD of K4 kissing-loop reporter values.

Recorded apparent KD of K4 kissing-loop reporter, per entry:
{"ENTRY SEQUENCE": "GAGAUAGAGGCGGCCGCCACUAGUGAUGUUGGUGAUGUUAGAUAGAGAAUAGAACGGGUACUCCCUAGGACCGGGCCAGAUGGAG [#04 K4 Tryptophan B Exclusion]", "TGT": "K4 kissing-loop RNA reporter", "apparent KD of K4 kissing-loop reporter": "58.5 nM"}
{"ENTRY SEQUENCE": "AACUGUCAAGGACAACAUUACUGAGGUGAUACCAGCAUCGAAAGAUGCCCUUGGCAGCACCAACUUGCAGUGAUGUUGCAAGUAA [Design6]", "TGT": "K4 kissing-loop RNA reporter", "apparent KD of K4 kissing-loop reporter": "212 nM"}

# context switch: different sequence, same apparent KD of K4 kissing-loop reporter
Prompt: Supply apparent KD of K4 kissing-loop reporter value. Item: AGUGAUGUAUGGCGGUUUGUCACUUAUUAUCAGGAUAUAUAAACAAAUAGAAGGGAUGGCGGAGUGAUGUUCCGCCGGCCGCCAU [FMN A Exl V5]
Response: 150 nM

* * *

System: K4 kissing-loop RNA reporter
Assay: apparent KD of K4 kissing-loop reporter; higher = weaker reporter binding
Conditions: Eterna round: R107; input ligand: arginine 13.2 mM
apparent KD of K4 kissing-loop reporter of 300 nM or higher: MET. Under 300 nM: NOT MET.

{"ENTRY SEQUENCE": "UGUACCGAUUCAGGAUAUGUCGUCGAAAGACGAAAUGGAGUGAUGUUCCUUAAACUGCGAAAGCAGACAGAAGGGAAUUGGUACU [FmnBS 29 U9+A77]", "TGT": "K4 kissing-loop RNA reporter", "CATEGORY": "NOT MET"}
{"ENTRY SEQUENCE": "CAAUGAGUAUAAGAUGAUAUCAUAACAGAAGGAGCGAGUGAUAACUCAGGUAGGUCGCUGAAUUUAUCGAGUGAUGUUCGAUAGA [whbob_SS_Arginine_A_sa117]", "TGT": "K4 kissing-loop RNA reporter", "CATEGORY": "NOT MET"}
{"ENTRY SEQUENCE": "UUUUAGGUAUCUGAUACCAGAGAAAAUAUAUGUAGUGAUGUUAUAUACAAAAUAAUUAAGCUCCCUUGGCAGCAGUAUUAAUUUU [AstrosExc-TheB#3]", "TGT": "K4 kissing-loop RNA reporter", "CATEGORY": "MET"}
{"ENTRY SEQUENCE": "UUUGAAAUGACUGAUACCAGUGAAAAUAUAUGUAGUGAUGUUAUAUACUAAUUUAAUAAGCGCCCUUGGCAGCAGUAUGAAUUAU [AstrosExc-theB#16]", "TGT": "K4 kissing-loop RNA reporter", "CATEGORY": "MET"}
{"ENTRY SEQUENCE": "ACCCGGGCCCGAAAGGGCCCGGGAAGAGAUACCAGCAGCGAAAGCUGCCCUUGGCAGCUCACUUAGUGAUGUUGAGAAUAGGGCG [#21 K4 Theophylline A Same State]", "TGT": "K4 kissing-loop RNA reporter", "CATEGORY": "NOT MET"}

# input for lookup
Prompt: apparent KD of K4 kissing-loop reporter >= 300 nM for ACUCCGAGUGAUGUUAAGAGAUUCUCUGUUAAGGAUAUUUUGCGCAAAAGAAGGUAACCCGGUUUUCGUAAUCUGUUAAUGCGGA [theeternabot_exclusion_KL_FMN_A_38] ?
Response: MET

* * *

Test system: K4 kissing-loop RNA reporter;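 also: bound reporter read as fluorescence of individual clusters on recovered sequencing chips by microscopy, with normalized cluster intensities fitted with a binding model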
Assay: apparent KD of K4 kissing-loop reporter; higher = weaker reporter binding
Conditions: Eterna round: R107; input ligand: tryptophan 2.4 mM
The following sequences are shown together with reported apparent KD of K4 kissing-loop reporter values.
Kindly provide the numeric value in nM only, without the unit symbol.

Recorded apparent KD of K4 kissing-loop reporter, per entry:
{"ENTRY SEQUENCE": "UGAUACCAGACGGCCGCCACUUCUGCAAGUCAAAGACUUGCCAAGGGAAUCGUCCAGUGAUGUUGGAGGACCGGGUCUGGUAUCU [FiskerMod 3 - Jieux - Exclusion - Tryptophan B]", "apparent KD of K4 kissing-loop reporter (nM)": 668}
{"ENTRY SEQUENCE": "CGCGUGGGUUUGAGAGGGUUUGCGCGAAGUGAGGAUAUUUAGGGAGAAAGAAGGCACUAUAAAAUAUAGUGAUGUUAUAUAAGGG [SSFMNA.J]", "apparent KD of K4 kissing-loop reporter (nM)": 126}
{"ENTRY SEQUENCE": "GAGAGCUCUGGAGGAUAUGAGUCUAGUGAUGUUAGGCGGUCCAUGCGCGUGGCGCGUUAUGCCCUUUUAGAAGGCCAGAGCUCUC [#2 Exclusion - FMN B Attempt #19 (HarryS)]", "apparent KD of K4 kissing-loop reporter (nM)": 85}
{"ENTRY SEQUENCE": "UGGCGUUGAACCGCCGAAUCGCUGUGAGAAGGAGCGGUAAAAUUGCCAGGUAGGUCGCUCACAGCUUCACAGUGAUGUUGUGGAA [Enxeisen]", "apparent KD of K4 kissing-loop reporter (nM)": 188}
{"ENTRY SEQUENCE": "AAUAAGGAGUGAUGUUCCAAGUGAUGUUAACGAGGACCGGUACGGCCGCCACUCGAUACGGCCGGAAAAUAAAAUAAAAUAAAAU [Same State - Tryptophan A (Freestyle 1)]", "apparent KD of K4 kissing-loop reporter (nM)": 124}

Prompt: Supply apparent KD of K4 kissing-loop reporter value. Item: UGUGGAGGAUAUGAUACCAGCAGUGAGAGAGAGGAAGUAUAGUGAUGUUAUAUGAGAGAAUGCCCUUGGCAGCGUAUGUAGUAGG [SSTheophylB.I]
Response: 191

Prompt: Supply apparent KD of K4 kissing-loop reporter value. Item: GGUUCUGGAAUCGAGUGAUGUUCGGUGUUGCAGGAUAUAGAGAGAUCUAGAAGGGCAGUUUGUAUUUUAUUGAGUGAUUUUCUUU [Last Minute #3]
Response: 93.4

Prompt: Supply apparent KD of K4 kissing-loop reporter value. Item: "UGGAGUUGACGAAAAGUCAACUCCCGAGAAGGAGCGGACGAAAGUCCAGGUAGGUCGCUCGCUACCAGUGAUGUUGGUACUGAAA"
Response: 105

Prompt: Supply apparent KD of K4 kissing-loop reporter value. Item: UGAUACCAGACGGCCGCCACUGGGACCGGGAGUGAUGUUCCAAAUAAAAGAAACUCGGCCGCCACUAGGACCGGGUCUGGUAUCU [TrypBX 30 #DoubleAptamer #SwitchBubble]
Response: 110
